# maps each entry to its pIC50
experimental target: UniProt Q9P1W9
pIC50: −log10 of the molar value.

Worked set:
{"compound": "C[C@@H]1C[C@H](N)CN(c2ccncc2NCc2ccc(F)c(-c3c(F)cc(N4CCCC(F)C4)cc3F)n2)C1 (stereo partly shown) [Example 71]", "readout name": "pIC50", "observed measurement": "≥ 7.00"}
{"compound": "C[C@H]1CN(c2ccncc2NCc2ccc(F)c(-c3c(F)ccc(C4(O)CC4)c3F)n2)C[C@@H](N)[C@@H]1O [Example 9]", "readout name": "pIC50", "observed measurement": "6.00 to 7.00"}
{"compound": "C[C@@H]1C[C@H](N)CN(c2ccncc2NCc2ccc3ccc(-c4ccc5c(c4)OCC5)cc3n2)C1 [Example 91]", "readout name": "pIC50", "observed measurement": "6.00 to 7.00"}

Now let's try a different one.
Lookup: Requested field: pIC50. Item: C[C@H]1CN(c2ccncc2NCc2ccc(F)c(-c3c(F)cc(C(C)(C)C#N)cc3F)n2)C[C@@H](N)[C@@H]1O [Example 24]
Found: ≥ 7.00

---

Quick record of pIC50 values for Pim-2 (Homo sapiens (Human)).
pIC50: −log10 of the molar value.

Worked set:
{"structure as smiles": "C[C@@H]1C[C@H](N)CN(c2ccncc2NCc2ccc(F)c(-c3c(F)cc(CN4CC[C@H](O)C4)cc3F)n2)C1", "pIC50": "≥ 7.00"}
{"structure as smiles": "Nc1cc(F)c(-c2c(F)cccc2F)nc1CNc1cnccc1N1C[C@@H](N)C[C@@H](C(F)(F)F)C1", "pIC50": "≥ 7.00"}
{"structure as smiles": "C[C@@H]1C[C@H](N)CN(c2ccncc2NCc2ccc(F)c(-c3ccccc3F)n2)C1", "pIC50": "6.00 to 7.00"}

Now let's try a different one.
Lookup: Requested field: pIC50. Item: COc1cccc(F)c1-c1nc(CNc2cnccc2N2C[C@@H](N)[C@H](O)[C@@H](C)C2)ccc1F
Found: 6.00 to 7.00

---

experimental target: Pim-2 (Homo sapiens (Human), UniProt Q9P1W9)
Sequence (Q9P1W9 whole entry): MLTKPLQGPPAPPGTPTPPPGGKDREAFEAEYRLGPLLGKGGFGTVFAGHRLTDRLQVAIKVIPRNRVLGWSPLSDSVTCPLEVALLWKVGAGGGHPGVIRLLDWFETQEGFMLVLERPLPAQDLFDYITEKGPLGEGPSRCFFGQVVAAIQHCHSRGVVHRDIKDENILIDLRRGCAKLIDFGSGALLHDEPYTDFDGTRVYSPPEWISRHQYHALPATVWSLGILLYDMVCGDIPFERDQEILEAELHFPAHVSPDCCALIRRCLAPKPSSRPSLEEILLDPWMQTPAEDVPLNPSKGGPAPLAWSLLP
pIC50: −log10 of the molar value.
readout name: pIC50

{"molecule": "COC1(c2cc(F)c(-c3nc(CNc4cnccc4N4C[C@@H](N)[C@H](O)[C@@H](C)C4)ccc3F)c(F)c2)CCOCC1", "experimental target": "Pim-2 (Homo sapiens (Human), UniProt Q9P1W9)", "pIC50": "6.00 to 7.00"}
{"molecule": "C[C@H]1CN(c2ccncc2NCc2ccc(F)c(-c3c(F)cc(CN4CCOCC4)cc3F)n2)C[C@@H](N)[C@@H]1O", "experimental target": "Pim-2 (Homo sapiens (Human), UniProt Q9P1W9)", "pIC50": "≥ 7.00"}

Lookup: Return pIC50 measured with Pim-2 (Homo sapiens (Human), UniProt Q9P1W9) given this molecule: CNCc1cc(F)c(-c2nc(CNc3cnccc3N3C[C@H](C)C[C@H](N)C3)ccc2F)c(F)c1
Found: 6.00 to 7.00

Lookup: Return pIC50 measured with Pim-2 (Homo sapiens (Human), UniProt Q9P1W9) given this molecule: C[C@@H]1C[C@H](N)CN(c2ccncc2NCc2ccc3occ(C4CC4)c3n2)C1
Found: 6.00 to 7.00

---

# maps each entry to its IC50
experimental target: Pim-2 (Homo sapiens (Human))

Lookup: Requested field: IC50. Item: C[C@@H]1C[C@H](N)CN(c2ccncc2NCc2ccc(F)c(-c3c(F)cc(CN4CC[C@@H](O)C4)cc3F)n2)C1
Found: ≤ 0.1 µM

Lookup: Requested field: IC50. Item: C[C@H]1CN(c2ccncc2NCc2ccc3ccc(-c4ccn5ccnc5c4)cc3n2)C[C@@H](N)[C@@H]1O
Found: 0.1 to 1 µM

Lookup: Requested field: IC50. Item: C[C@@H]1C[C@H](N)CN(c2ccncc2NCc2ccc(F)c(-c3c(F)cc(O[C@@H]4CCOC4)cc3F)n2)C1
Found: ≤ 0.1 µM

Lookup: Requested field: IC50. Item: C[C@H]1CN(c2ccncc2NCc2ccc(F)c(-c3c(F)cc(C(C)(C)O)cc3F)n2)C[C@@H](N)[C@@H]1O
Found: ≤ 0.1 µM

---

pIC50: −log10 of the molar value.
Quick record of pIC50 values for Pim-2 (Homo sapiens (Human), UniProt Q9P1W9).

Worked set:
{"compound": "C[C@H]1CN(c2ccncc2NCc2ccc(F)c(-c3c(F)cc(CN4CC[C@@H](O)C4)cc3F)n2)C[C@@H](N)[C@@H]1O [Example 42]", "pIC50": "≥ 7.00"}
{"compound": "COc1cc(F)c(-c2nc(CNc3cnccc3N3C[C@@H](N)[C@H](O)[C@@H](C)C3)ccc2F)c(F)c1 [Example 82]", "pIC50": "≥ 7.00"}
{"compound": "C[C@@H]1C[C@H](N)C[C@H](c2ccncc2NCc2ccc(F)c(-c3c(F)cc(N4CCOCC4)cc3F)n2)C1 [Example 68]", "pIC50": "6.00 to 7.00"}
{"compound": "CC(Nc1cnccc1N1C[C@H](C)C[C@H](N)C1)c1ccc(F)c(-c2c(F)cccc2F)n1 (some centres unmarked) [Example 111]", "pIC50": "≥ 7.00"}

Now let's try a different one.
Lookup: Requested field: pIC50. Item: C[C@@H]1C[C@H](N)CN(c2ccncc2NCc2ccc(F)c(-c3c(F)cc(C(C)(C)C#N)cc3F)n2)C1 [Example 24A]
Found: ≥ 7.00

---

# maps each entry to its pIC50
experimental target: Pim-2 (Homo sapiens (Human), UniProt Q9P1W9)
pIC50: −log10 of the molar value.

{"compound": "C[C@@H]1C[C@H](N)CN(c2ccncc2NCc2ccc(F)c(-c3c(F)cc(C4(O)CCOC4)cc3F)n2)C1 (stereo partly shown) [Example 4]", "pIC50": "≥ 7.00"}
{"compound": "C[C@H]1CN(c2ccncc2NCc2ccc(F)c(-c3c(F)cc(O[C@@H]4CCOC4)cc3F)n2)C[C@@H](N)[C@@H]1O [Example 73]", "pIC50": "≥ 7.00"}
{"compound": "C[C@H]1CN(c2ccncc2NCc2ccc(F)c(-c3c(F)cc(CO)cc3F)n2)C[C@@H](N)[C@@H]1O [Example 35]", "pIC50": "≥ 7.00"}
{"compound": "C[C@H]1CN(c2ccncc2NCc2ccc(F)c(-c3c(F)cc(CN4CC[C@H](F)C4)cc3F)n2)C[C@@H](N)[C@@H]1O [Example 47]", "pIC50": "≥ 7.00"}
{"compound": "C[C@@H]1C[C@H](N)CN(c2c(NCc3ccc(F)c(-c4c(F)cccc4F)n3)cnc3c2CCC3O)C1 (single isomer, unassigned) [Example 87 (Diastereoisomer 1)]", "pIC50": "5.00 to 6.00"}

Lookup: Return pIC50 measured with Pim-2 (Homo sapiens (Human), UniProt Q9P1W9) given this compound: C[C@@H]1C[C@H](N)CN(c2ccncc2NCc2ccc(F)c(-c3c(F)cc(CN4CC[C@H](F)C4)cc3F)n2)C1 [Example 56]
Found: ≥ 7.00

Lookup: Return pIC50 measured with Pim-2 (Homo sapiens (Human), UniProt Q9P1W9) given this compound: N[C@@H]1CN(c2ccncc2NCc2ccc(F)c(-c3c(F)cccc3F)n2)CC[C@H]1F [Example 90]
Found: 5.00 to 6.00

Lookup: Return pIC50 measured with Pim-2 (Homo sapiens (Human), UniProt Q9P1W9) given this compound: C[C@H]1CN(c2ccncc2NCc2cccc(-c3c(F)cccc3F)n2)C[C@@H](N)[C@@H]1O [Example 28]
Found: 6.00 to 7.00

Lookup: Return pIC50 measured with Pim-2 (Homo sapiens (Human), UniProt Q9P1W9) given this compound: C[C@@H]1C[C@H](N)CN(c2ccncc2NCc2ccc(F)c(-c3c(F)cc(C4(F)CCOCC4)cc3F)n2)C1 [Example 62]
Found: ≥ 7.00

Lookup: Return pIC50 measured with Pim-2 (Homo sapiens (Human), UniProt Q9P1W9) given this compound: COc1cccc(F)c1-c1nc(CNc2cnccc2N2C[C@H](C)C[C@H](N)C2)ccc1F [Example 20]
Found: 5.00 to 6.00
